System name: D(2) dopamine receptor (Rattus norvegicus)
Sequence (P61169 whole entry): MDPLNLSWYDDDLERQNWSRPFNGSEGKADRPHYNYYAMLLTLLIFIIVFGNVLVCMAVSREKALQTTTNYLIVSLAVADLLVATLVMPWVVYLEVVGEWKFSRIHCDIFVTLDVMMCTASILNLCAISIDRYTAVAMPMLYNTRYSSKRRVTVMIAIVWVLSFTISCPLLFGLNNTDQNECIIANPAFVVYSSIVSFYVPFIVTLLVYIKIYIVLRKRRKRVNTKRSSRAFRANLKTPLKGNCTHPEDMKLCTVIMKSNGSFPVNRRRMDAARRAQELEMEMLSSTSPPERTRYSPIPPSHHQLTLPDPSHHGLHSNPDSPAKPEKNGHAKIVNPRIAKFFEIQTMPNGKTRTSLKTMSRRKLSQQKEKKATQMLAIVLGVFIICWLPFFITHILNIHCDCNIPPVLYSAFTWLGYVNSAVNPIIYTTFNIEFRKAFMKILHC
Test protocol: Binding Affinity was determined against Dopamine receptor D2 in rat striatal membranes using [3H]- spiperone radioligand.
Experimental readout: pKi
Scale: pKi equals -log10([C]), with [C] in mol/L.

Recorded results for 3 compounds are shown here.
| Compound | pKi |
| --- | --- |
| COc1ccc2c(c1)CC1c3c(cccc3O2)CCN1C (configuration not stated) | 5.91 |
| CN1CCc2cccc3c2C1Cc1cc(O)ccc1O3 (configuration not stated) | 6.14 |
| CCN1CCc2cc(O)cc3c2C1Cc1ccccc1O3 (configuration not stated) | 5.19 |

For COc1ccc2c(c1)CC1c3c(ccc(Br)c3CCN1C)O2 (configuration not stated) , what is its reported pKi?
6.07

For CCN1CCc2cccc3c2C1Cc1cc(OC)ccc1O3 (configuration not stated) , what is its reported pKi?
5.73

For CCN1CCc2cc(OC)cc3c2C1Cc1ccccc1O3 (configuration not stated) , what is its reported pKi?
5.07

For CCN1CCc2cc(OC)cc(Br)c2C1Cc1ccccc1O (configuration not stated) , what is its reported pKi?
5.51

For COc1cc(Br)c2c(c1)CCN(C)C2Cc1ccccc1O (configuration not stated) , what is its reported pKi?
5.15

For CCCN1CCc2cc(OC)cc3c2C1Cc1ccccc1O3 (configuration not stated) , what is its reported pKi?
5.46

For CCN1CCc2cc(Br)cc(OC)c2C1Cc1ccccc1O (configuration not stated) , what is its reported pKi?
5.66

Data origin, for the record: ChEMBL document CHEMBL1133094
